Would you kindly list inhibition at 10 µM for each of these compounds?
- target_under_test: cynomolgus BK1-receptor (Macaca fascicularis)
- Construct: expressed in transfected cells; host or cells: CHO cells (homogenate)
- Sequence (Q3BCU0 whole entry): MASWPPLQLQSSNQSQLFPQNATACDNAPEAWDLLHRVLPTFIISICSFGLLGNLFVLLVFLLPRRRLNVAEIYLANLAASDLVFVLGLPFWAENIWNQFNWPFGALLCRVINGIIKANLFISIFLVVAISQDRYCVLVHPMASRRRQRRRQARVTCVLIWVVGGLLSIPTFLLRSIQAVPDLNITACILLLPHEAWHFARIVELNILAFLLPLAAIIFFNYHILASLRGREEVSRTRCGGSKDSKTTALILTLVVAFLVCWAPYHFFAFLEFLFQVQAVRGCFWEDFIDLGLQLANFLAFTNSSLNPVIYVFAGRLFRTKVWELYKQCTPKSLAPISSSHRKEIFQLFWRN
- assay_comment: cynoBK1-receptor binding assay
- condition_description: at 10 μgmol/L; CHO cells expressing cynomolgus BK1-receptor, radioligand kallidine (DesArg10,Leu9)
Remember to put the unit after the number in your answer.

(Q) Look up and state reported inhibition at 10 µM for Cc1ncncc1C(=O)N[C@@]1(C(=O)NCc2ccc(Nc3ccccc3C(F)(F)F)cc2)CCOC1
(A) 96%

(Q) Look up and state reported inhibition at 10 µM for O=C(NC1(C(=O)NCc2ccc(Nc3ccccc3C(F)(F)F)cn2)CCC(O)C1)c1cncnc1 (stereo not shown)
(A) 95%

(Q) Look up and state reported inhibition at 10 µM for O=C(NC1(C(=O)NCc2ccc(Nc3ccc(F)cc3C(F)(F)F)cc2)CC1)c1ccno1
(A) 112%

(Q) Look up and state reported inhibition at 10 µM for O=C(NC1(C(=O)NCc2ncc(Nc3c(F)cccc3C(F)(F)F)cc2F)CC1)c1cncnc1
(A) 113%

###

Would you kindly list Ki for each of these molecules?
Entry rule: numbers only, all in nM.

(Q) GET Ki | system: cynomolgus BK1-receptor (Macaca fascicularis) | item: CNc1ncc(C(=O)N[C@@]2(C(=O)NCc3ncc(Nc4ccc(Cl)cc4C(F)(F)F)cc3F)CCOC2)cn1 [(276)]
(A) 17

(Q) GET Ki | system: cynomolgus BK1-receptor (Macaca fascicularis) | item: Cc1cc(Nc2ccc(Cl)cc2C(F)(F)F)cnc1CNC(=O)[C@]1(NC(=O)c2cncc(N)c2)CCOC1 [(346)]
(A) 48

(Q) GET Ki | system: cynomolgus BK1-receptor (Macaca fascicularis) | item: CC(NC(=O)C1(NC(=O)c2cncnc2)CC1)c1ccc(Nc2c(F)cccc2C(F)(F)F)cn1 (stereo not shown) [(123)]
(A) 8.3

(Q) GET Ki | system: cynomolgus BK1-receptor (Macaca fascicularis) | item: CC(NC(=O)C1(NC(=O)c2cncnc2)CC1)c1ncc(Nc2ccc(Br)cc2C(F)(F)F)cc1F (stereo not shown) [(213)]
(A) 1.9

(Q) GET Ki | system: cynomolgus BK1-receptor (Macaca fascicularis) | item: N#Cc1ccccc1Nc1cnc(CNC(=O)C2(NC(=O)c3cncnc3)CC2)c(F)c1 [(295)]
(A) 31

(Q) GET Ki | system: cynomolgus BK1-receptor (Macaca fascicularis) | item: CNc1cncc(C(=O)NC2(C(=O)NCc3ccc(Nc4ccc(F)cc4C(F)(F)F)cn3)CC2)c1 [(270)]
(A) 51

(Q) GET Ki | system: cynomolgus BK1-receptor (Macaca fascicularis) | item: Cn1cnc2cc(C(=O)NC3(C(=O)NCc4ccc(Nc5ccc(Cl)cc5C(F)(F)F)cn4)CC3)ccc21 [(264)]
(A) 60

(Q) GET Ki | system: cynomolgus BK1-receptor (Macaca fascicularis) | item: O=C(NC1(C(=O)NCc2ccc(Nc3ccccc3C(F)(F)F)cn2)CC1)c1cncnc1 [(39)]
(A) 5.5

(Q) GET Ki | system: cynomolgus BK1-receptor (Macaca fascicularis) | item: CNc1cncc(C(=O)N[C@@]2(C(=O)NCc3ccc(Nc4ccc(F)cc4C(F)(F)F)cn3)CCOC2)c1 [(311)]
(A) 349

(Q) GET Ki | system: cynomolgus BK1-receptor (Macaca fascicularis) | item: Nc1cncc(C(=O)N[C@@]2(C(=O)NCc3ccc(Nc4ccc(Cl)cc4C(F)(F)F)cn3)CCOC2)c1 [(226)]
(A) 157

(Q) GET Ki | system: cynomolgus BK1-receptor (Macaca fascicularis) | item: Nc1cncc(C(=O)NC2(C(=O)NCc3ncc(Nc4c(F)cccc4C(F)(F)F)cc3F)CC2)c1 [(125)]
(A) 12

(Q) GET Ki | system: cynomolgus BK1-receptor (Macaca fascicularis) | item: Cc1ncc(C(=O)NC2(C(=O)NCc3ncc(Nc4ccccc4C(F)(F)F)cc3Cl)CC2)cn1 [(301)]
(A) 1.1

(Q) GET Ki | system: cynomolgus BK1-receptor (Macaca fascicularis) | item: O=C(NC1(C(=O)NCc2ccc(Nc3ccc(Cl)cc3C(F)(F)F)cn2)CC1)c1cncc(O)c1 [(205)]
(A) 17

(Q) GET Ki | system: cynomolgus BK1-receptor (Macaca fascicularis) | item: N#Cc1ncc(C(=O)NC2(C(=O)NCc3ccc(Nc4ccc(Cl)cc4C(F)(F)F)cn3)CC2)cn1 [(385)]
(A) 9.4

(Q) GET Ki | system: cynomolgus BK1-receptor (Macaca fascicularis) | item: CN(C)c1ncc(C(=O)NC2(C(=O)NCc3ccc(Nc4ccc(Cl)cc4C(F)(F)F)cn3)CC2)cn1 [(210)]
(A) 187

(Q) GET Ki | system: cynomolgus BK1-receptor (Macaca fascicularis) | item: Nc1cncc(C(=O)N[C@@]2(C(=O)NCc3ncc(Nc4ccccc4C(F)(F)F)cc3Cl)CCOC2)c1 [(229)]
(A) 27

(Q) GET Ki | system: cynomolgus BK1-receptor (Macaca fascicularis) | item: Cc1cc(Nc2ccccc2C(F)(F)F)cnc1CNC(=O)[C@]1(NC(=O)c2cncc(N)c2)CCOC1 [(359)]
(A) 125

(Q) GET Ki | system: cynomolgus BK1-receptor (Macaca fascicularis) | item: Cc1ncc(C(=O)N[C@@]2(C(=O)NCc3ncc(Nc4ccccc4C(F)(F)F)cc3Cl)CCOC2)cn1 [(292)]
(A) 7.2

(Q) GET Ki | system: cynomolgus BK1-receptor (Macaca fascicularis) | item: COc1ncc(C(=O)N[C@@]2(C(=O)NCc3ncc(Nc4ccc(F)cc4C(F)(F)F)cc3Cl)CCOC2)cn1 [(230)]
(A) 6.1
